- Test system: SR leukemia
- METHOD: NCI tumour cell line growth inhibition, 48 h
Recorded TGI for the following compounds

{"COMPOUND": "Nc1nccc2c1ncn2[C@H]1C[C@H](O)[C@@H](CO)O1", "TGI": "> 100 µM"}
{"COMPOUND": "COc1cc(C=C(c2ccc(N(C)C)cc2)c2ccc(N(C)C)cc2)c2ccccc2c1OC", "TGI": "> 100 µM"}
{"COMPOUND": "C=CC(=O)C#CC#CC/C=C\\CCCCCCC", "TGI": "14.2 µM"}
{"COMPOUND": "COc1cc(C(=O)O)ccc1OS(=O)(=O)O", "TGI": "> 100 µM"}
{"COMPOUND": "CCCCCC(=O)Nc1n[nH]nc1C#N", "TGI": "> 100 µM"}
{"COMPOUND": "OCCCCC#Cc1ccccc1C#Cc1ccccn1", "TGI": "96.2 µM"}
{"COMPOUND": "CC(C)(CNC(=O)/C(Cl)=C(/Cl)C(=O)O)CNC(=O)/C(Cl)=C(/Cl)C(=O)O", "TGI": "> 100 µM"}
{"COMPOUND": "Cc1nc2ccccc2nc1NNc1ccccc1", "TGI": "74.5 µM"}
{"COMPOUND": "O=C1/C(=C\\c2cccc(Oc3ccccc3)c2)SC(c2ccccc2)N1c1ccccc1Cl (stereo unspecified)", "TGI": "> 100 µM"}
{"COMPOUND": "CC1CCC2C(C)(C)CC3(C)CCC1C23O (stereo unspecified)", "TGI": "29.1 µM"}
{"COMPOUND": "CC1(C)CC(C)(C)CC(O)(C2(O)CC(C)(C)CC(C)(C)C2)C1", "TGI": "> 100 µM"}

###

- Test system: SK-OV-3 ovarian
- METHOD: NCI tumour cell line growth inhibition, 48 h
ATTRIBUTE_MEASURED: TGI

{"COMPOUND": "CC(C)(C)OC(=O)C1CCC/C1=N/Nc1ccc([N+](=O)[O-])cc1[N+](=O)[O-] (stereo not drawn)", "ATTRIBUTE_MEASURED": "TGI", "VALUE_REPORTED": "> 100 µM"}
{"COMPOUND": "CC(C)(CNC(=O)/C(Cl)=C(/Cl)C(=O)O)CNC(=O)/C(Cl)=C(/Cl)C(=O)O", "ATTRIBUTE_MEASURED": "TGI", "VALUE_REPORTED": "> 100 µM"}
{"COMPOUND": "COc1cc(C(c2c(O)c3ccccc3oc2=O)c2c(O)c3ccccc3oc2=O)ccc1O", "ATTRIBUTE_MEASURED": "TGI", "VALUE_REPORTED": "> 100 µM"}
{"COMPOUND": "COC1=CC(=O)N(C(=O)C2CSC(C(CO)NC(=O)c3csc(/C=N/O)n3)=N2)C1 (stereo not drawn)", "ATTRIBUTE_MEASURED": "TGI", "VALUE_REPORTED": "> 100 µM"}
{"COMPOUND": "Clc1ccc2c(N3CCN(c4ccnc(NC5CCCCC5)n4)CC3)ccnc2c1", "ATTRIBUTE_MEASURED": "TGI", "VALUE_REPORTED": "14 µM"}
{"COMPOUND": "COC(=O)[C@]12CC[C@H]3CN(C(=O)OCc4ccccc4)[C@H]([C@H]31)[C@H](c1ccccc1)N2", "ATTRIBUTE_MEASURED": "TGI", "VALUE_REPORTED": "> 100 µM"}
{"COMPOUND": "O=C1C=CC(=O)C(CNc2ccc(C(=O)OC34CC5CC(CC(C5)C3)C4)cc2)=C1Br", "ATTRIBUTE_MEASURED": "TGI", "VALUE_REPORTED": "34.2 µM"}
{"COMPOUND": "COc1nc(-c2c[nH]c3ccccc23)cnc1N", "ATTRIBUTE_MEASURED": "TGI", "VALUE_REPORTED": "> 100 µM"}
